B1: library; numbered along this chain (parent)
chain: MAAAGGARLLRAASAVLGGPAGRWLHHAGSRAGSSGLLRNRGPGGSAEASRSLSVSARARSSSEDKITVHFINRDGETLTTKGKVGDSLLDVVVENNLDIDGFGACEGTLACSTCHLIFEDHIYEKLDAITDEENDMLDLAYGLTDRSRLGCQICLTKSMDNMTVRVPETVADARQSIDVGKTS

- Variants of: B1
- test.details: scaled log2 fold change in cell abundance, elesclomol vs control (0 = silent mean, 1 = nonsense mean) (scaled log2 ratio); higher = higher viability under elesclomol (loss of FDX1 cuproptosis function);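 note: variant abundance is its share of total variant reads in each endpoint sample, from next-generation sequencing of the integrated ORF PCR-amplified out of genomic DNA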
- assay.context: with HEK293T FDX1 KO; elesclomol 40 nM; glucose 10 mM; 11 days
reported.property: scaled log2 fold change
Give the figure by itself; no unit, no explanation.

mutation.list | scaled log2 fold change
V171H | -0.163
E107A | -0.202
R60C | -0.517
A12I | -0.67
A59Q | -0.702
A174D | 0.361
L89D | 1.26
D173P | 0.601

[in] Reported scaled log2 fold change for K66E : what is it?
[out] -0.118

[in] Look at this variant and give its reported scaled log2 fold change. D101R
[out] -0.328
